Molecular target: PI3Kdelta (Homo sapiens, UniProt O00329)
Construct: His (N); host or cells: SF9 insect cells (baculovirus)
Sequence (O00329 whole entry): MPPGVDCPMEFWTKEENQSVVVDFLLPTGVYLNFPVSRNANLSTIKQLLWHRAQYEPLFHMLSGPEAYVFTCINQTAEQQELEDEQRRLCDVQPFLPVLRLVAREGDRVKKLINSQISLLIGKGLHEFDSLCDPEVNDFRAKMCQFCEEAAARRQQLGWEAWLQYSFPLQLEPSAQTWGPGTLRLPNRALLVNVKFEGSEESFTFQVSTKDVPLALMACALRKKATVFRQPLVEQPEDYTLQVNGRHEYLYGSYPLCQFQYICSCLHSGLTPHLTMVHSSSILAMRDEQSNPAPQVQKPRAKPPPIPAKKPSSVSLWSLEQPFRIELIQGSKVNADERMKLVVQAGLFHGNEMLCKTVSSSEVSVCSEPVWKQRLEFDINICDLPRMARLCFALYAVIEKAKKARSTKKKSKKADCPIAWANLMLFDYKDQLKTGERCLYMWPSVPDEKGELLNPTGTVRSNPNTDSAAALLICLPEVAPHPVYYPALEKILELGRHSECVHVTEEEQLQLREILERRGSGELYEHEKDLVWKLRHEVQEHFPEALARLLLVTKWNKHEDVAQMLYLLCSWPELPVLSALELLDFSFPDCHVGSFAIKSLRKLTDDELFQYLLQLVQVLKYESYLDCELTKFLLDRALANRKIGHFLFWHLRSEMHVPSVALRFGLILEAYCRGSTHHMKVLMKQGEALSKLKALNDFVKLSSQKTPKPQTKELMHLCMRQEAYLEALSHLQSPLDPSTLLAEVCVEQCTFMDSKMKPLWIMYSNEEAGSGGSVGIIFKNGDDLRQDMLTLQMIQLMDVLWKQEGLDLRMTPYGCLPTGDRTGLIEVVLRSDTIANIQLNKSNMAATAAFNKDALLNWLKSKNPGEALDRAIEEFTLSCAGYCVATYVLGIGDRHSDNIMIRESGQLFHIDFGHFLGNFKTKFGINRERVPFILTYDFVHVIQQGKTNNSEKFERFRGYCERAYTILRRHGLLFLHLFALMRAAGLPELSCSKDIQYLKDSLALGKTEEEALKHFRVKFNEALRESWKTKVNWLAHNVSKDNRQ
Sequence (P27986 whole entry partner): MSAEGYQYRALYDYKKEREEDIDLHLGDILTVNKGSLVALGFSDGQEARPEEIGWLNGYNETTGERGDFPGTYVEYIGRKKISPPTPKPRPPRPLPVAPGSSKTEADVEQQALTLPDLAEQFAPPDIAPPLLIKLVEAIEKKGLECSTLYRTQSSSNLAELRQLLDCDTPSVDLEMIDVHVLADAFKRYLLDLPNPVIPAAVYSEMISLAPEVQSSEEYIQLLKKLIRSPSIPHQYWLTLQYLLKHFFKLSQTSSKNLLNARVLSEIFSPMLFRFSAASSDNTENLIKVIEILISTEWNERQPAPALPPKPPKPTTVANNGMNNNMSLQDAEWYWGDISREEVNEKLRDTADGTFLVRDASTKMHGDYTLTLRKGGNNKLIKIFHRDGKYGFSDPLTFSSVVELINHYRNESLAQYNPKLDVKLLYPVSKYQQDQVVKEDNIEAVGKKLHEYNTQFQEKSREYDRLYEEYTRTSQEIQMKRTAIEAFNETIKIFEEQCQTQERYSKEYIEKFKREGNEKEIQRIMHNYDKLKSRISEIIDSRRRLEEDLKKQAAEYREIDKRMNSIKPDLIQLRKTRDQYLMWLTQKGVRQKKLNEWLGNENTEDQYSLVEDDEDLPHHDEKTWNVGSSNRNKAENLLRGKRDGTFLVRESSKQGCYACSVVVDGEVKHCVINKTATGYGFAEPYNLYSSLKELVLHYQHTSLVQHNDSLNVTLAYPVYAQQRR
Assay: Human PI3K delta enzyme assay (HTRF, as for PI3K alpha)
Assay type: biochemical
Conditions: read-out: PI3Kdelta % inh
measured-attribute: inhibition at 1.11 µM (%)
Give a bare numeral; the unit % is implied.

Tell me the measured inhibition at 1.11 µM of O=C1NCCC(c2ccc3ccccc3c2)c2nc(N3CCOCC3)sc21 (stereo not shown) [Compound 209] , please.
110

Tell me the measured inhibition at 1.11 µM of C[Si](C)(C)CCOCN1CC(O)(c2ccc3ccccc3c2)c2cc(N3CCOCC3)sc2S1(=O)=O (stereo not shown) [Compound 144] , please.
111

Tell me the measured inhibition at 1.11 µM of O=C1CC(c2ccc3ccccc3c2)c2cc(N3CCOCC3)sc21 (stereo not shown) [Compound 119] , please.
99.8

Tell me the measured inhibition at 1.11 µM of O=C1NCCCC(c2ccc(Cl)cc2)c2cc(-c3ccncc3)sc21 (stereo not shown) [Compound 31] , please.
50.5

Tell me the measured inhibition at 1.11 µM of O=S1(=O)NCC(O)(c2ccc(Cl)cc2)c2cc(-c3ccncc3)sc21 (racemic) [Compound 26] , please.
37.9

Tell me the measured inhibition at 1.11 µM of O=C1NCCC(c2ccc3ccccc3c2)c2cc(N3CCOCC3)sc21 (stereo not shown) [Compound 175] , please.
112

Tell me the measured inhibition at 1.11 µM of O=C1N[C@@H](C(=O)NCCCO)[C@H](c2ccc(Cl)cc2)c2cc(N3CCOCC3)sc21 [Compound 170] , please.
51.6

Tell me the measured inhibition at 1.11 µM of O=C1NCC(c2ccc(Cl)cc2)c2cc(-c3ccncc3)sc21 (stereo not shown) [Compound 30] , please.
36

Tell me the measured inhibition at 1.11 µM of O=C1CC(c2cccc(Cl)c2)c2cc(N3CCOCC3)sc21 (stereo not shown) [Compound 186] , please.
74.9

Tell me the measured inhibition at 1.11 µM of O=C1NCCC(c2ccc(Cl)c(Cl)c2)c2cc(N3CCOCC3)sc21 (stereo not shown) [Compound 185] , please.
110

Tell me the measured inhibition at 1.11 µM of O=C1N[C@@H](CO)[C@H](c2ccc(Cl)c(Cl)c2)c2cc(N3CCOCC3)sc21 (relative stereo) [Compound 192] , please.
105

Tell me the measured inhibition at 1.11 µM of O=C1N[C@@H](CO)[C@H](c2ccc(Cl)cc2)c2cc(N3CCOCC3)sc21 [Compound 133] , please.
102

Tell me the measured inhibition at 1.11 µM of O/N=C1\CCC(c2ccc(Cl)cc2)c2cc(-c3ccncc3)sc21 (stereo not shown) [Compound 24] , please.
54.2

Tell me the measured inhibition at 1.11 µM of Cc1nn2ccccc2c1-c1nc2c(s1)C(=O)CCC2c1ccc(Cl)cc1 (stereo not shown) [Compound 20] , please.
60.4

Tell me the measured inhibition at 1.11 µM of Cc1nn2ccccc2c1-c1nc2c(s1)NC(=O)CCC2c1ccc(Cl)cc1 (stereo not shown) [Compound 11] , please.
60.3

Tell me the measured inhibition at 1.11 µM of O=C1CC(c2ccc3ccccc3n2)c2cc(N3CCOCC3)sc21 (stereo not shown) [Compound 183] , please.
60.1
